Target: c-Met kinase (Homo sapiens, UniProt P08581)
Construct: recombinant N-terminal 6×His-tagged c-Met kinase domain construct expressed from baculovirus; 6xHis (N); made in house
Sequence (P08581 1078-1345 limits assumed): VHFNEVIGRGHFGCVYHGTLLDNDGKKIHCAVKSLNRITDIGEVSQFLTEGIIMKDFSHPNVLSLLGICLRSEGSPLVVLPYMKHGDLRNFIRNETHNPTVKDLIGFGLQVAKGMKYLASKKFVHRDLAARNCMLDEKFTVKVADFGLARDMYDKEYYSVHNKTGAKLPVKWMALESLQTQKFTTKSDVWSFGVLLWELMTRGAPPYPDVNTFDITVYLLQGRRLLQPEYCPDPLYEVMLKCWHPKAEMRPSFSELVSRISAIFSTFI
Experiment: c-Met kinase assay (33P incorporation into Poly(Glu-Tyr))
Format: biochemical
Conditions: 500 nM test compound
property.measured: inhibition at 0.5 µM (%)
Give bare numbers, in %.

(Q) # get_value(readout='inhibition at 0.5 µM', item= CCOC(=O)CCc1c(/C=C2\C(=O)Nc3ccc(S(=O)(=O)NC)cc32)[nH]c2c1C(=O)CCC2 )
(A) 48.1

(Q) Also CC1(C)CC(=O)c2c([nH]c(/C=C3\C(=O)Nc4ccc(NS(=O)(=O)c5ccccc5)cc43)c2CCC(=O)O)C1 , if possible.
(A) 10.8

Now turn to the next compound.
(Q) Please report the recorded inhibition at 0.5 µM for O=C(O)CCc1c(/C=C2\C(=O)Nc3ccc(NS(=O)(=O)Cc4ccccc4)cc32)[nH]c2c1C(=O)CCC2 .
(A) 20.2

###

Biological target: Aurora A kinase (Homo sapiens, UniProt O14965)
Construct: purchased Upstate
Sequence (O14965 whole entry): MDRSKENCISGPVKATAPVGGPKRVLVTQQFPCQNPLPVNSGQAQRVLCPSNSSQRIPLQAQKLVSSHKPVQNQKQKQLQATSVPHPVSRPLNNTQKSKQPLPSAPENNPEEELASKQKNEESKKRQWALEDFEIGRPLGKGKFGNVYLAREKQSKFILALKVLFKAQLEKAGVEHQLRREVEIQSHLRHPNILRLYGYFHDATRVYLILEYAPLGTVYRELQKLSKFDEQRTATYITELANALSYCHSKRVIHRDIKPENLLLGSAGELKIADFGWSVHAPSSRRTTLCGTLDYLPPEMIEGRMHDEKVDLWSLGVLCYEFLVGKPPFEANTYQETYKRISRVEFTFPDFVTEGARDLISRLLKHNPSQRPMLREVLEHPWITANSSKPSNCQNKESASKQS
Test: Aurora A kinase assay ([γ-33P]ATP, CHOCKtide substrate)
Format: biochemical
Settings: 1.0 μM test compound
I'd appreciate it if you could supply inhibition at 1 µM values for the items below.
Give bare numbers, in %.

(Q) Query inhibition at 1 µM on Aurora A kinase (Homo sapiens, UniProt O14965) for CC(=O)c1c(C)[nH]c(/C=C2\C(=O)Nc3ccc(S(=O)(=O)Cc4c(Cl)cccc4Cl)cc32)c1CCC(=O)N1CCN(C)CC1 [DCB-70205]
(A) 11.3

(Q) Try O=C(O)CCc1c(/C=C2\C(=O)Nc3cc(-c4ccc(O)cc4)ccc32)[nH]c2c1C(=O)CCC2 [DCB-70075] next.
(A) 92.4

(Q) Item: CCOC(=O)CCc1c(/C=C2\C(=O)Nc3ccc(Br)cc32)[nH]c2c1C(=O)CCC2 [DCB-70056]
(A) 55

The following compounds each have a reported value; give each one's inhibition at 1 µM.
1. CCN(CC)CCNC(=O)CCc1c(/C=C2\C(=O)Nc3ccc(S(=O)(=O)Cc4c(Cl)cccc4Cl)cc32)[nH]c2c1C(=O)CCC2 [DCB-70223]
2. CCOC(=O)CCc1c(/C=C2\C(=O)Nc3ccc(NS(=O)(=O)c4cccc(OC)c4)cc32)[nH]c2c1C(=O)CCC2 [DCB-70195]
3. CCOC(=O)CCc1c(/C=C2\C(=O)Nc3ccc(S(=O)(=O)NC)cc32)[nH]c2c1C(=O)CCC2 [DCB-70064]
4. O=C(O)CCc1c(/C=C2\C(=O)Nc3cc(-c4ccc(F)cc4)ccc32)[nH]c2c1C(=O)CCC2 [DCB-70099]
5. CC(=O)c1c(C)[nH]c(/C=C2\C(=O)Nc3ccc(F)cc32)c1CCC(=O)N1CCN(C)CC1 [DCB-70207]

(A)
[68.5, 73.1, 78.6, 47.5, 10.3]

// for each compound in input: emit inhibition at 1 µM
1. CCOC(=O)CCc1c(/C=C2\C(=O)Nc3ccc(/N=C/c4ccc(F)c(C(F)(F)F)c4)cc32)[nH]c2c1C(=O)CCC2 [DCB-70178]
2. CNS(=O)(=O)c1ccc2c(c1)/C(=C/c1[nH]c3c(c1CCC(=O)N1CCN(C)CC1)C(=O)CCC3)C(=O)N2 [DCB-70117]
3. CCOC(=O)CCc1c(/C=C2\C(=O)Nc3cc(-c4ccc5c(c4)OCO5)ccc32)[nH]c2c1C(=O)CCC2 [DCB-70128]
4. CNS(=O)(=O)c1ccc2c(c1)/C(=C/c1[nH]c3c(c1CCC(=O)O)C(=O)CCC3)C(=O)N2 [DCB-70065]
5. COc1ccc2c(c1)/C(=C/c1[nH]c3c(c1CCC(=O)O)C(=O)CCC3)C(=O)N2 [DCB-70167]
6. Nc1ccccc1NC(=O)CCc1c(/C=C2\C(=O)Nc3ccc(NS(=O)(=O)c4ccccc4)cc32)[nH]c2c1C(=O)CCC2 [DCB-70186]
7. O=C(O)CCc1c(/C=C2\C(=O)Nc3ccc(NS(=O)(=O)c4cc(Cl)cc(Cl)c4)cc32)[nH]c2c1C(=O)CCC2 [DCB-70194]
8. CCOC(=O)CCc1c(/C=C2\C(=O)Nc3ccc(NC(C)c4ccccc4)cc32)[nH]c2c1C(=O)CCC2 (centres unmarked) [DCB-70179]

(A)
1. 31.2
2. 34.9
3. 5.1
4. 97.3
5. 86.4
6. 66.1
7. 85.3
8. 59.9

# map each compound to its inhibition at 1 µM
1. O=C(O)CCc1c(/C=C2\C(=O)Nc3ccc(NCc4ccccc4)cc32)[nH]c2c1C(=O)CCC2 [DCB-70132]
2. CCOC(=O)CCc1c(/C=C2\C(=O)Nc3ccc(NC(=O)Nc4ccc(OC)cc4)cc32)[nH]c2c1C(=O)CCC2 [DCB-70092]
3. CC(=O)c1c(C)[nH]c(/C=C2\C(=O)Nc3ccc(NS(=O)(=O)c4ccccc4)cc32)c1CCC(=O)N1CCN(C)CC1 [DCB-70219]
4. CCOC(=O)CCc1c(/C=C2\C(=O)Nc3ccc(-c4ccc(OC)c(OC)c4)cc32)[nH]c2c1C(=O)CCC2 [DCB-70067]

(A)
1: 33.4; 2: 9.4; 3: 25.7; 4: 5.2
